# target or system: T1, EGF32 NRR (cyno) (cynomolgus monkey)
# T1 construct: recombinant, C-terminal six histidine tag
# procedure details: Biacore (SPR); set-up not stated on the sheet
measured endpoint: Kd (pM)
Report only the number, with the unit pM understood.

1. 20337 (antibody, human IgG1, kappa, V domains shown) VH: QVQLVESGGGLVKPGGSLRLSCAASGFTFSTYVMHWVRQAPGKGLEWVGRIRANAYGGAADYAAPVKGRFTISRDDSKNTLYLQMNSLKTEDTAVYYCARAEARYRDVWGQGTLVTVSS VL: DIQMTQSPSSLSASVGDRVTITCRASQSISSHLNWYQQKPGKAPKLLIYAASNLQSGVPSRFSGSGSGTDFTLTISSLQPEDFATYYCQQDYHTPFTFGQGTKVEIKR
400
2. 20345 (antibody, human IgG1, kappa, V domains shown) VH: QVQLVQSGAEVKKPGSSVKVSCKASGGTFSSYTISWVRQAPGQGLEWMGWIKPKLGMAHYAQKFQGRVTITADESTSTAYMELSSLRSEDTAVYYCARGSFWFGYWGQGTLVTVSS VL: DIQMTQSPSSLSASVGDRVTITCRASQGINNYLNWYQQKPGKAPKLLIYDASKLQSGVPSRFSGSGSGTDFTLTISSLQPEDFATYYCQQYLQYPMTFGQGTKVEIKR
700

# next binder below
Request: Answer with the recorded Kd of 20351 (antibody, human IgG1, kappa, V domains shown) VH: QVQLVQSGAEVKKPGSSVKVSCKASGGTFSSYTISWVRQAPGQGLEWMGWIKPRYGAAMYAQKFQGRVTITADESTSTAYMELSSLRSEDTAVYYCARGSFWFGYWGQGTLVTVSS VL: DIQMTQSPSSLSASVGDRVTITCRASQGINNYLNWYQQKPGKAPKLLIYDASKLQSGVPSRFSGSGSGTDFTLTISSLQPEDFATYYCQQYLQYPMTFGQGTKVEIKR only.
Response: 1200
